// provenance: the supplement of paper PMC9116672

procedure-details: duplex formation entropy ΔS (Van't Hoff fit of HRM Tm); higher = smaller entropy loss on duplex formation
particulars: temperature for dG: 50 °C; NaCl: 500 mM (unadjusted); backbone: PS-PO (listed strand fully phosphorothioate, complement phosphodiester)
// label = 1 (yes) if duplex formation entropy ΔS is not less than -300 cal/mol/K, otherwise 0 (no)

[[record]]
sequence = "CAAGCCTCGATTTTGT"
group = "1 (yes)"

[[record]]
sequence = "TAGACGCGGCCTCTTTCC"
group = "1 (yes)"

[[record]]
sequence = "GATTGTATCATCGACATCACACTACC"
group = "0 (no)"

[[record]]
sequence = "GTGAAACAATGCTGTAG"
group = "1 (yes)"

[[record]]
sequence = "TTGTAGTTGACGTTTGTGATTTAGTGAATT"
group = "0 (no)"


Given the entry TATTCTGCCAATGGAAC , answer whether its duplex formation entropy ΔS meets or surpasses -300 cal/mol/K.
1 (yes)

Repeat with GTGGTACAAATGCGACC
1 (yes)

Repeat with CCCAGGCCTCGGATTTA
1 (yes)

Repeat with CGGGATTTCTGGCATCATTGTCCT
0 (no)

Repeat with TTGAAAACCCATGTGC
1 (yes)

Repeat with TTCGCGGTCTCCATTA
1 (yes)

Repeat with GCTGTGAAACAATGTAG
1 (yes)
